test system: mixed bacteria, comprising E. coli (ATCC 8739), P. aeruginosa (ATCC 9027), and S. aureus (ATCC 6538); test: Inhibition of mixed bacteria by propynyl compound solutions in protein shampoo (Example 2); format: cell-based; conditions: Table 3; day 28; 500 ppm in protein shampoo (GPL 1000 ppm); solvent butoxydiglycol (A, E) or butylene glycol (B, C, D)
Can you tell me DAY 28 Bacteria (cfu/ml) for the items I'm about to list?

INSERT INTO assay_data (compound, result) VALUES
  ('OC(C#CI)c1cccs1 (stereo not shown) [Compound L90, 2-(3-iodo-2-propyn-1-ol-yl) thiophene]', '>10^3 cfu/ml'),
  ('O=c1c(Cl)cn(CC#CI)c(=O)n1CC#CI [Compound L58, 1N,3N-Diiodopropyn-2-yl-5-chlorouracil]', '<10 cfu/ml'),
  ('Cc1ccc(C(Cn2ccnc2)OCC#CI)cc1 (stereo not shown) [Compound L103]', '<10 cfu/ml');

Moving on to another compound below.
### Prompt Form field: reported DAY 28 Bacteria (cfu/ml) of O=C(C#CI)c1ccc(C(F)(F)F)cc1 [Compound L74]
### Response >10^3 cfu/ml
